In this section we review reported Potency values for a set of compounds.
# test-method-notes: Quantitative high throughput screen to test activity of anti-malarial compounds in the Dd2 strain of Plasmodium Falciparum
# setup-conditions: P. falciparum Dd2 in RBCs, SYBR Green growth, 72 h
Calls of active or inactive are those of the source. Calls follow the shape of the dose curve; as a rule, active = well fitted inhibition curve with a large enough effect; inconclusive = small, poorly fitted or top-dose-only effect; inactive = flat fitted curve, though single readings scatter.

The reported Potency of the compound `C[C@@H]1CN([C@@H](C)COC(=O)C(C)(C)C)C(=O)c2cc(NC(=O)Nc3ccccc3)ccc2O[C@@H](C)CCCCO[C@H]1CN(C)S(=O)(=O)c1ccc(F)cc1` was 50.4 nM (active)

The reported Potency of the compound `C[C@@H]1CN(CCO)C(=O)c2cc(NC(=O)Nc3ccccc3)ccc2O[C@@H](C)CCCCO[C@H]1CN(C)S(=O)(=O)c1ccc(F)cc1` was 2520 nM (active)

The reported Potency of the compound `C=CCOC(=O)N(C)C[C@@H]1OCCCC[C@H](C)Oc2ccc(NC(=O)Nc3ccccc3)cc2C(=O)N([C@H](C)COC(=O)c2ccccc2)C[C@H]1C` was 896 nM (active)

The reported Potency of the compound `C[C@@H]1CN([C@@H](C)CO)C(=O)c2cc(NC(=O)Nc3ccccc3)ccc2O[C@@H](C)CCCCO[C@H]1CN(C)S(=O)(=O)c1ccc(C(F)(F)F)cc1` was 1130 nM (active)

The reported Potency of the compound `Cc1noc(C)c1NC(=O)Nc1ccc2c(c1)C(=O)N([C@@H](C)CO)C[C@@H](C)[C@H](CN(C)S(=O)(=O)c1ccc(F)cc1)OCCCC[C@H](C)O2` was 634 nM (active)

The reported Potency of the compound `C[C@@H]1CCCCO[C@H](CN(C)C(=O)Nc2ccc(F)cc2)[C@H](C)CN([C@@H](C)CO)C(=O)c2cc(NS(=O)(=O)c3ccccc3)ccc2O1` was 504 nM (active)
